System: SK-MEL-5 melanoma
Assay: NCI-60 one-dose screen, 48 h (100 = growth as untreated, 0 = no growth, -100 = all killed)
Settings: 10 µM unless noted
Method: Growth inhibition of the SK-MEL-5 human tumor cell line is measured as a screen for anti-cancer activity. Cells are grown in 96 well plates and exposed to the test compound for 48 hours. Compounds are tested at a single concentration, which is 10^-5 M for most compounds. The reported endpoint is percent growth (GI% or GIPRCNT), where numbers from 0 - 100% represent growth inhibition, and numbers from -100% - 0 represent cell death. For example, a value of 40 represents 60% growth inhibition. […]
This is part of a sample that, as a whole, favours compounds with a hit. Of some 83,000 tested, about 20% had one in any assay.
Let's look at some compounds and their measured growth.
Kindly provide the numeric value in % only, without the unit symbol.

| compound | system.tested | growth, % |
| --- | --- | --- |
| O=C(Nc1cccc2ccccc12)NC1CC1 | SK-MEL-5 melanoma | 103 |
| COc1ccc(C(=O)N2c3ccccc3Sc3ccccc32)c(OC)c1 | SK-MEL-5 melanoma | 19 |
| Cc1cc(N2CCCCC2)cc(C)c1-c1csc(NC(=O)c2ccncc2)n1 | SK-MEL-5 melanoma | -8.97 |

## Input Entry "NC(N)=NCCCCCNc1noc(Cc2c[nH]c3cc(Br)ccc23)n1" : reported growth = ?
## Output 68.1

## Input Entry O=C(c1nn(-c2ccccc2)c2c1CC(NCc1ccc(F)cc1)CC2)N1CCCCC1 (centres undefined) : reported growth = ?
## Output 96

## Input Entry C=C(C)[C@@H]1CC[C@]2(C(=O)O)CC[C@]3(C)[C@H](CC[C@@H]4[C@@]5(C)CCC(NC(=O)c6cccc(OC(C)=O)c6OC(C)=O)C(C)(C)[C@@H]5CC[C@]43C)[C@@H]12 (some centres undefined) : reported growth = ?
## Output -81.7

## Input Entry "OB1OCc2cc(/C=C/c3cccc(C(F)(F)F)c3)ccc21" : reported growth = ?
## Output -14.1

## Input Entry "CC(C)=CCC[C@](C)(O)[C@H]1CC[C@]2(C)[C@@H]1CC[C@@H]1[C@@]3(C)C/C(=C/c4ccco4)C(=O)C(C)(C)[C@@H]3CC[C@]12C" : reported growth = ?
## Output 102

## Input Entry COc1ccc(C2=Nc3c(N)nc(N)nc3NC(c3cccc(Nc4ccnc5cc(C(F)(F)F)ccc45)c3)C2)cc1 (centres undefined) : reported growth = ?
## Output 61.4

====

Test system: HS 578T breast
Experiment: NCI-60 one-dose screen, 48 h (100 = growth as untreated, 0 = no growth, -100 = all killed)
Conditions: 10 µM unless noted
The panel holds about 83,000 compounds, 20% with a hit somewhere; the sample as a whole holds those more often.
Lab note: anything with growth below 30% is marked Satisfied; values at 30% or higher are marked Not satisfied.

## Input Does this compound meet the criterion growth < 30%? "O=C(/C=C/c1cccc(Cl)c1)c1ccc(Nc2nc(Nc3ccc(F)cc3)nc(Nc3ccc(Cl)cc3)n2)cc1"
## Output Not satisfied

====

Test system: SF-268 CNS
Assay: NCI-60 one-dose screen, 48 h
Details: 10 µM unless noted
Protocol: Cells are grown in 96 well plates and exposed to the test compound for 48 hours. Compounds are tested at a single concentration, which is 10^-5 M for most compounds. The reported endpoint is percent growth (GI% or GIPRCNT), where numbers from 0 - 100% represent growth inhibition, and numbers from -100% - 0 represent cell death. For example, a value of 40 represents 60% growth inhibition. A value of 0 means no net growth occurred over the course of the experiment. […]
Compounds without any hit were thinned out: in the full panel of roughly 83,000, 20% have a hit. Calls of active or inactive are those of the source. The calls were made as follows: active = growth percent below 10; inactive = the rest.
Allowed answers: YES (active), NO (inactive)

Past entries and their recorded results:
| molecule | classification |
| --- | --- |
| C#COc1cccc(Nc2c(C#N)cnc3ncc(NC(=O)CCl)cc23)c1 | YES |
| O=CN1N=C(c2cccc(Nc3ccnc4cc(Cl)ccc34)c2)CC1c1ccccc1 (centres undefined) | NO |
| O=C(Nc1cccc(Cl)c1)Nc1cccc(Cn2c(=O)[nH]c3ccc(Oc4ncccn4)cc3c2=O)c1 | NO |

## Input Which outcome was entered for the molecule "CC(C)c1ccc(-n2c(=S)[nH]c3sc4cc(O)ccc4c3c2=O)cc1" in this test?
## Output NO

## Input Which outcome was entered for the molecule "CCCCCOC(=O)c1c(C)[nH]c(/C=C2\N=C(c3ccc[nH]3)C=C2OC)c1C" in this test?
## Output NO

## Input Which outcome was entered for the molecule "NS(=O)(=O)c1ccccc1NC(=O)Nc1nc2ccccc2s1" in this test?
## Output NO

## Input Which outcome was entered for the molecule "[O-]/[N+](=C\c1ccc(-n2cc(Cc3ccccc3Cc3cn(-c4ccc(/C=[N+](/[O-])c5ccccc5)cc4)nn3)nn2)cc1)c1ccccc1" in this test?
## Output NO

## Input Which outcome was entered for the molecule "COCCNC(=O)Nc1ccc2nc(-c3cccs3)c(-c3cccs3)nc2c1" in this test?
## Output NO

## Input Which outcome was entered for the molecule "CNC(=O)c1[nH]cc(-c2ccc(OC)cc2)c1-c1cc(OC)c2c(c1OC)OCO2" in this test?
## Output NO

====

Test system: NCI-H23 lung
Assay: NCI-60 one-dose screen, 48 h (100 = growth as untreated, 0 = no growth, -100 = all killed)
Details: 10 µM unless noted
The panel holds about 83,000 compounds, 20% with a hit somewhere; the sample as a whole holds those more often.
# growth >= 70% gives true, anything below gives false

| compound | classification |
| --- | --- |
| Nc1n[nH]c2ccc([C@H]3[C@@H]4C5CCC(C5)[C@@H]4c4c(ccc5[nH]ncc45)N3S(=O)(=O)C3CC3)cc12 (some centres undefined) | false |
| CN(C)CCNC(=O)c1ccc(-c2nc3ccc4[nH]ncc4c3c3c2C2CCC3C2)cc1 (centres undefined) | false |
| Cc1cn(-c2cc(NC(=O)c3cncc(C#Cc4cnc(N)c5ncccc45)c3)cc(C(F)(F)F)c2)cn1 | false |

## Input Please check the record "O=C(/C=C/c1cccc(Cl)c1)c1ccc(Nc2nc(Nc3ccc(F)cc3)nc(Nc3ccc(Cl)cc3)n2)cc1" and state if its growth is at or above 70%.
## Output true

## Input Please check the record "CCC(=O)Oc1ccc(-c2ccccc2)cc1Br" and state if its growth is at or above 70%.
## Output true

## Input Please check the record "COC(=O)[C@@H](CCCCNC(=O)[C@]12CCC(C)(C)C[C@@H]1C1=CC[C@@H]3[C@@]4(C)C/C(=C/c5ccco5)C(=O)C(C)(C)[C@@H]4CC[C@@]3(C)[C@]1(C)CC2)NC(=O)[C@]12CCC(C)(C)C[C@@H]1C1=CC[C@@H]3[C@@]4(C)C/C(=C/c5ccco5)C(=O)C(C)(C)[C@@H]4CC[C@@]3(C)[C@]1(C)CC2" and state if its growth is at or above 70%.
## Output true

## Input Please check the record "C=CCSc1nnc(NC(=O)CCl)s1" and state if its growth is at or above 70%.
## Output true

## Input Please check the record "CCOC(=O)c1c(NC(=O)c2ccc(Cl)cc2)sc2c(CN(C)C)c(O)ccc12" and state if its growth is at or above 70%.
## Output true

====

Tested on: SF-268 CNS
Experiment: NCI-60 one-dose screen, 48 h
Conditions: 10 µM unless noted
About 83,000 compounds went through this panel and 20% of them were active in at least one assay; those are over-represented in the sample as a whole. Calls of active or inactive are those of the source. How the source made its calls: active means growth percent below 10; inactive means the rest.
Allowed answers: yes (1) = active, no (0) = inactive

| compound | system.tested | classification |
| --- | --- | --- |
| Cc1csc(Nc2nc(-c3ccccn3)nc(C(Cl)(Cl)Cl)n2)n1 | SF-268 CNS | no (0) |
| CSc1nc2ncc([N+](=O)[O-])c(=O)n2[nH]1 | SF-268 CNS | no (0) |
| Cn1cc(-c2nonc2-c2cn(C)c3ccccc23)c2ccccc21 | SF-268 CNS | no (0) |
| COc1ccc(C(=O)Nc2cccc(-c3cc(=O)c4c(OC)c(OC)c(OC)cc4o3)c2)cc1 | SF-268 CNS | no (0) |

## Input Which outcome was entered for the compound "Cc1cn(-c2cc(NC(=O)c3cccc(C#Cc4cccc5[nH]nc(N)c45)c3)cc(C(F)(F)F)c2)cn1" in this test?
## Output no (0)

## Input Which outcome was entered for the compound "Cn1ccc(=O)c(C(=O)Nc2nsc3ccc([N+](=O)[O-])cc23)c1" in this test?
## Output no (0)

## Input Which outcome was entered for the compound "CN1C(=O)/C(=C\c2c(Cl)cccc2Cl)c2ccccc21" in this test?
## Output no (0)

## Input Which outcome was entered for the compound COC(=O)C1Cc2ccccc2CN1C(=O)c1ccc2c(c1)Cc1ccccc1-2 (stereo not given) in this test?
## Output no (0)

## Input Which outcome was entered for the compound CCCCCCCCCCCCCCCCOCCCOP(=O)(O)C1CCCN(O)C1=O (stereo not given) in this test?
## Output yes (1)

## Input Which outcome was entered for the compound COc1cc2c(cc1OC)C(C)N(S(N)(=O)=O)CC2 (stereo not given) in this test?
## Output no (0)
